- target or test system: Recombinant human integrin αVβ3 (Homo sapiens, UniProt P05106+P06756)
- Sequence (P06756 31-992 limits assumed): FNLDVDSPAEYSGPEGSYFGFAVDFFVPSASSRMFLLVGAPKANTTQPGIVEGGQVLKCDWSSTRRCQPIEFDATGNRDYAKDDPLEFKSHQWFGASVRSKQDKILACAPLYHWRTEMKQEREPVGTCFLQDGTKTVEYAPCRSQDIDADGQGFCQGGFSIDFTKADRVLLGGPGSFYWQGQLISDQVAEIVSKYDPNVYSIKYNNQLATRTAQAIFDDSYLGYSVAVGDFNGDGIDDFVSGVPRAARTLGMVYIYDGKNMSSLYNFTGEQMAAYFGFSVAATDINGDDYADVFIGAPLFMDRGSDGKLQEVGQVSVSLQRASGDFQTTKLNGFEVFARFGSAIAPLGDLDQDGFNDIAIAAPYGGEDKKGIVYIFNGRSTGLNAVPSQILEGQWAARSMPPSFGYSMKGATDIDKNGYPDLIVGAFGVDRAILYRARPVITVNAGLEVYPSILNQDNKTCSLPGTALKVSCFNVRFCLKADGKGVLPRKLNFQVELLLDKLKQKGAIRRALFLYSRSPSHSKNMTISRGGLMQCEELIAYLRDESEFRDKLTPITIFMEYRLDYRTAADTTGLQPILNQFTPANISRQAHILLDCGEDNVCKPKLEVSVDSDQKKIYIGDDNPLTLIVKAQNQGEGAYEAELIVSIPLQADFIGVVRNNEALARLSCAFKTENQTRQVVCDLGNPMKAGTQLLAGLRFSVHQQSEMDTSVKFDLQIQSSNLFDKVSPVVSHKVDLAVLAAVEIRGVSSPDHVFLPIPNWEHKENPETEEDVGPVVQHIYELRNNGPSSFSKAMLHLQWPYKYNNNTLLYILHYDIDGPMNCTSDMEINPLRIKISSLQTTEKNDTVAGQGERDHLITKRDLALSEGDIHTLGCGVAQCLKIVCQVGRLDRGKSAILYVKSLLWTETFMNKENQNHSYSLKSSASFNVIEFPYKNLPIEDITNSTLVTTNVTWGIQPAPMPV
- Sequence (P05106 27-718 limits assumed): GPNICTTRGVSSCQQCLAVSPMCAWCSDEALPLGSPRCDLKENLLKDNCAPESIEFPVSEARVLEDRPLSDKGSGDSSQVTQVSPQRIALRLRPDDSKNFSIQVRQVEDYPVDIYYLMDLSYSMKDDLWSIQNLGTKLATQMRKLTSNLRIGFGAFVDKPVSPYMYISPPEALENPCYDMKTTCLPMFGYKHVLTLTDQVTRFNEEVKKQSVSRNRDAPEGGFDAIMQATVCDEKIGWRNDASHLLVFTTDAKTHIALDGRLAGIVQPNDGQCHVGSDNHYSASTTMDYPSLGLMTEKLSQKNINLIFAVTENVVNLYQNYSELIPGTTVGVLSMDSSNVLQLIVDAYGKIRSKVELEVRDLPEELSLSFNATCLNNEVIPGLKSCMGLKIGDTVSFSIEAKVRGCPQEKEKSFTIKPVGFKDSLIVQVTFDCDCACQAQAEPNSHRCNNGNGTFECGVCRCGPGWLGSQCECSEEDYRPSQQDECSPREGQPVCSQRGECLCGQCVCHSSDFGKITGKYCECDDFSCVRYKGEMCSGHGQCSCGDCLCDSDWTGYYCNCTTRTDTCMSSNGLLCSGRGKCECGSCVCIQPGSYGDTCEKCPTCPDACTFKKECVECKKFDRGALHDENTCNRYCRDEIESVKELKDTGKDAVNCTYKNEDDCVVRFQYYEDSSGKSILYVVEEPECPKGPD
- assay explanation: Solid Phase Receptor Assay for αVβ3 function
- measurement conditions: plate-bound human vitronectin; read-out: αVβ3 SPRA IC50
Structures can show the parent of a compound that is named as a salt.
result type: IC50

> print(dat)
                                   molecule                     target.or.test.system  result
1  Cn1nc(CC(CC(=O)O)c2cc(Br)cc(S(F)(F)(F)(F)F)c2)cc1OCCc1ccc2c(n1)NCCC2 (stereo not shown) [Example 3]  Recombinant human integrin αVβ3 (Homo sapiens, UniProt P05106+P06756)    8 nM
2  COc1ccc(C2=CCOCC2)cc1[C@@H](CC(=O)O)Cc1csc(CCCc2ccc3c(n2)NCCC3)n1 [Example 37B, trifluoroacetate]  Recombinant human integrin αVβ3 (Homo sapiens, UniProt P05106+P06756)  940 nM
3  Cn1nc(CC(CC(=O)O)c2cc(C(C)(C)C)ccc2OC(F)(F)F)cc1OCCc1ccc2c(n1)NCCC2 (stereo not shown) [Example 20]  Recombinant human integrin αVβ3 (Homo sapiens, UniProt P05106+P06756)  880 nM
4  Cn1nc(CC(CC(=O)O)c2cc(C(C)(C)C)cc(C(C)(C)CO)c2)cc1OCCc1ccc2c(n1)NCCC2 (stereo not shown) [Example 7]  Recombinant human integrin αVβ3 (Homo sapiens, UniProt P05106+P06756)   17 nM
5  COCC1(c2cc(C(CC(=O)O)Cc3csc(CCCc4ccc5c(n4)NCCC5)n3)cc(C(C)(C)C)c2)CCOCC1 (stereo not shown) [Example 32]  Recombinant human integrin αVβ3 (Homo sapiens, UniProt P05106+P06756)  600 nM
6  Cn1nc(CC(CC(=O)O)c2cc(C(C)(C)C)cc(C(C)(C)C(F)(F)F)c2)cc1OCCc1ccc2c(n1)NCCC2 (stereo not shown) [Example 5]  Recombinant human integrin αVβ3 (Homo sapiens, UniProt P05106+P06756)  140 nM
7  CC(C)c1cc(C(C)C)cc(C(CC(=O)O)Cc2cc(OCCc3ccc4c(n3)NCCC4)n(C)n2)c1 (stereo not shown) [Example 4]  Recombinant human integrin αVβ3 (Homo sapiens, UniProt P05106+P06756)   15 nM

---

- target or test system: Recombinant human integrin αVβ8 (Homo sapiens, UniProt P06756+P26012)
- Sequence (P26012 43-684 limits assumed, one chain of several): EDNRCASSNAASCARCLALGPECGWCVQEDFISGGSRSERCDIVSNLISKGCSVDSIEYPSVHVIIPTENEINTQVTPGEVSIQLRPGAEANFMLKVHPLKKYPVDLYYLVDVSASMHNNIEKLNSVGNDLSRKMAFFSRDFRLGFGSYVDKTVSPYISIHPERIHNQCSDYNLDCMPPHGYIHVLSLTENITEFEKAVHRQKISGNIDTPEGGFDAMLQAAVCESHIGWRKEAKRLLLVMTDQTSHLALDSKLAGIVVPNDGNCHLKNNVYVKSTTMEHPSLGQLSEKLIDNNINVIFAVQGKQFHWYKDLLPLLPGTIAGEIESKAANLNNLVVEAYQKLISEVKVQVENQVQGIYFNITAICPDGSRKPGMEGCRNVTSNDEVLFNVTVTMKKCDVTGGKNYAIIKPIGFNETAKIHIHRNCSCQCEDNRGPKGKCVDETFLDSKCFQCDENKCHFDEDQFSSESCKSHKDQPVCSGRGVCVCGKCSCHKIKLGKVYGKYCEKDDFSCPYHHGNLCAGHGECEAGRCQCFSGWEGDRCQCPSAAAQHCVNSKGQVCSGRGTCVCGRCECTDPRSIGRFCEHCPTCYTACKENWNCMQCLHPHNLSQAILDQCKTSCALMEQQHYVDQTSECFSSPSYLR
- assay explanation: Solid Phase Receptor Assay for αVβ8 function
- measurement conditions: plate-bound human LAP; read-out: αVβ8 SPRA IC50
result type: IC50 (nM)

> print(dat)
                                   molecule  result.type  result
1  COc1ccc(C2=CCOCC2)cc1C(CC(=O)O)Cc1csc(CCCc2ccc3c(n2)NCCC3)n1 (centres unmarked) [Example 37]         IC50      83
2  CC(C)(C)c1cc(C(CC(=O)O)Cc2csc(CCCc3ccc4c(n3)NCCC4)n2)cc(C2(C(F)F)CC2)c1 (centres unmarked) [Example 30]         IC50      25
3  COc1cc(C(CC(=O)O)Cc2cc(OCCc3ccc4c(n3)NCCC4)n(C)n2)cc(C23CC4CC(CC(C4)C2)C3)c1OCc1ccccc1 (centres unmarked) [Example 13]         IC50     540
4  COc1ccc(C(F)(F)F)cc1C(CC(=O)O)Cc1csc(CCCc2ccc3c(n2)NCCC3)n1 (centres unmarked) [Example 35]         IC50      51
5  COc1ccc(C2CCOCC2)cc1C(CC(=O)O)Cc1cc(OCCc2ccc3c(n2)NCCC3)n(C)n1 (centres unmarked) [Example 46]         IC50     250

---

- target or test system: Recombinant human integrin α5β1 (Homo sapiens, UniProt P05556+P08648)
- Sequence (P08648 42-995 limits assumed): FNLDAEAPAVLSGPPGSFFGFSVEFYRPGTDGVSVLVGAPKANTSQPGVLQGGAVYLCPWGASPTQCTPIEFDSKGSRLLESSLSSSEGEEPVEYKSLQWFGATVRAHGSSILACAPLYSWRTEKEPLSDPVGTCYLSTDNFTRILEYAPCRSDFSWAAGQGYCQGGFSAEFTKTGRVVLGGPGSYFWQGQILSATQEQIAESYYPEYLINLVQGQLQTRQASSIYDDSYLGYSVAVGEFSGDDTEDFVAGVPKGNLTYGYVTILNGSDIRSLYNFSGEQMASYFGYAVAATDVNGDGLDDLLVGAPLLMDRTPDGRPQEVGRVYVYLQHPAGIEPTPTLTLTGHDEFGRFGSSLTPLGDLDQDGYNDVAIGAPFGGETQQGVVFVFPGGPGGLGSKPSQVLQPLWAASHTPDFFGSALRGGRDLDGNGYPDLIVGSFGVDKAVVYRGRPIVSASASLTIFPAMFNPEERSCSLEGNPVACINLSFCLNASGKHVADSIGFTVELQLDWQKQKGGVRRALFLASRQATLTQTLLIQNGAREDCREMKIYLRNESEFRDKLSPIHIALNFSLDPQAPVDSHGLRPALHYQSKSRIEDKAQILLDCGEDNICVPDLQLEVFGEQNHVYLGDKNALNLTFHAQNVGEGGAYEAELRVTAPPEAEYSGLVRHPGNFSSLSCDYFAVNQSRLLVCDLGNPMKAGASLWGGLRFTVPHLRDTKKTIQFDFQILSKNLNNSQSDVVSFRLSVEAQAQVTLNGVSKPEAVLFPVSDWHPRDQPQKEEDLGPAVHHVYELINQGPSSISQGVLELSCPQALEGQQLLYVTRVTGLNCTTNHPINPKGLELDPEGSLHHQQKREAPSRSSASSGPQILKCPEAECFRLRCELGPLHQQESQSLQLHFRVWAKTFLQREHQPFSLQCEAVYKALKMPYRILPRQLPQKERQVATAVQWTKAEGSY
- Sequence (P05556 21-728 limits assumed): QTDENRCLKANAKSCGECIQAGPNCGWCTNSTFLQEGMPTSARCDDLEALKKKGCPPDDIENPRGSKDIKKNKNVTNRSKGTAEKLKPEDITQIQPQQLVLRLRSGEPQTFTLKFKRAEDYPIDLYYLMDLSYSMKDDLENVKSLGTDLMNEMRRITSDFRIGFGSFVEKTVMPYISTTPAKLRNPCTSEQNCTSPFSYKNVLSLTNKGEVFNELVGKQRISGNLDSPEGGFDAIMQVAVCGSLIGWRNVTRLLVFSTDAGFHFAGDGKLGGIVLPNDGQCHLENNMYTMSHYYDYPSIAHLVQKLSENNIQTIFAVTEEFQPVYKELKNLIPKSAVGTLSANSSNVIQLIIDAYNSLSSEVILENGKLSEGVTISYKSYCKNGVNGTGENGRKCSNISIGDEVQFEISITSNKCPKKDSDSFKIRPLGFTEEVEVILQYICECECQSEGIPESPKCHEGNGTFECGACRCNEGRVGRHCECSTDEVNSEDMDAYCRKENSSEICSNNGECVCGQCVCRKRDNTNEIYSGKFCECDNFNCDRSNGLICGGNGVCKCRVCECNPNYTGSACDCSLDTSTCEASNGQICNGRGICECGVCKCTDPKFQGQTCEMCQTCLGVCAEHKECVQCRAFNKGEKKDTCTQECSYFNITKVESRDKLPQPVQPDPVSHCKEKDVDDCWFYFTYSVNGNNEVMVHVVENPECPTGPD
- assay explanation: Solid Phase Receptor Assay (SPRA) for α5β1 function
- measurement conditions: plate-bound human fibronectin
Where a name gives a salt, the structure may show the parent alone.
result type: IC50 (nM)

> print(dat)
                                   compound  result.type  result
1  CC(C)c1cc(C(C)C)cc(C(CC(=O)O)Cc2cc(OCCc3ccc4c(n3)NCCC4)n(C)n2)c1 (stereo not shown) [Example 4]         IC50       4
2  Cc1cc(C)n(-c2cccc(C(CC(=O)O)Cc3csc(CCc4ccc5c(n4)NCCC5)n3)c2)n1 (stereo not shown) [Example 38]         IC50     420
3  Cn1nc(CC(CC(=O)O)c2cc(Br)cc(S(F)(F)(F)(F)F)c2)cc1OCCc1ccc2c(n1)NCCC2 (stereo not shown) [Example 3]         IC50      31
4  CC(C)c1cc(C#N)cc(C(CC(=O)O)Cc2cc(OCCc3ccc4c(n3)NCCC4)n(C)n2)c1 (stereo not shown) [Example 2, trifluoroacetic acid]         IC50       7
5  Cn1nc(CC(CC(=O)O)c2cc(C(C)(C)C)cc(C(C)(C)C(F)(F)F)c2)cc1OCCc1ccc2c(n1)NCCC2 (stereo not shown) [Example 5]         IC50       2
6  COc1ccc(S(F)(F)(F)(F)F)cc1C(CC(=O)O)Cc1cc(OCCc2ccc3c(n2)NCCC3)n(C)n1 (stereo not shown) [Example 24]         IC50      25
7  COc1ccc(C2=CCOCC2)cc1[C@@H](CC(=O)O)Cc1csc(CCCc2ccc3c(n2)NCCC3)n1 [Example 37B, trifluoroacetate]         IC50    2800

---

- target or test system: Recombinant human integrin α5β1 (Homo sapiens, UniProt P05556+P08648)
- assay explanation: Solid Phase Receptor Assay (SPRA) for α5β1 function
- measurement conditions: plate-bound human fibronectin
Listed below: IC50 values for each entry.
result type: IC50 (nM)

> print(dat)
                                   compound  result.type  scale.unit  result
1  COc1ccc(C2(C(F)F)CC2)cc1C(CC(=O)O)Cc1csc(CCCc2ccc3c(n2)NCCC3)n1 (stereo not drawn) [Example 36]         IC50          nM       7
2  Cn1nc(C[C@@H](CC(=O)O)c2cc3c(c(C(C)(C)C)c2)OCO3)cc1OCCc1ccc2c(n1)NCCC2 [Example 47]         IC50          nM     6.2
3  Cn1nc(CC(CC(=O)O)c2cc(C(C)(C)C)cc(C3(C(F)F)CC3)c2)cc1OCCc1ccc2c(n1)NCCC2 (stereo not drawn) [Example 6]         IC50          nM       6
4  COc1ccc(C2=CCOCC2)cc1C(CC(=O)O)Cc1cc(OCCc2ccc3c(n2)NCCC3)n(C)n1 (stereo not drawn) [Example 42]         IC50          nM      10
5  Cn1nc(CC(CC(=O)O)c2cc(C(C)(C)C)ccc2C#N)cc1OCCc1ccc2c(n1)NCCC2 (stereo not drawn) [Example 18]         IC50          nM       4
6  COCC1(c2ccc(OC)c([C@H](CC(=O)O)Cc3cc(OCCc4ccc5c(n4)NCCC5)n(C)n3)c2)CCOCC1 [Example 48]         IC50          nM     9.7

---

- target or test system: Recombinant human integrin αvβ1 (Homo sapiens, UniProt P05556+P06756)
- Sequence (P05556 21-728 limits assumed, one chain of several): as the sequence (P05556 21-728 limits assumed) above
- assay explanation: Solid Phase Receptor Assay (SPRA) for αVβ1 function
- measurement conditions: plate-bound human fibronectin
pIC50: −log10 of the molar value. Where a name gives a salt, the structure may show the parent alone.
Listed below: pIC50 values for each entry.
result type: pIC50

> print(dat)
                                    compound                     target.or.test.system  result
 1  Cn1nc(CC(CC(=O)O)c2cc(C(C)(C)C)ccc2Br)cc1OCCc1ccc2c(n1)NCCC2 (stereo not shown)  Recombinant human integrin αvβ1 (Homo sapiens, UniProt P05556+P06756)    7.85
 2  COc1ccc(C2=CCOCC2)cc1C(CC(=O)O)Cc1csc(CCCc2ccc3c(n2)NCCC3)n1 (stereo not shown)  Recombinant human integrin αvβ1 (Homo sapiens, UniProt P05556+P06756)    8.52
 3  O=C(O)CC(Cc1cc(OCCc2ccc3c(n2)NCCC3)[nH]n1)c1cccc(F)c1 (stereo not shown) [CC2, reference compound]  Recombinant human integrin αvβ1 (Homo sapiens, UniProt P05556+P06756)    7.72
 4  COCC1(c2cc(C(CC(=O)O)Cc3csc(CCCc4ccc5c(n4)NCCC5)n3)cc(C(C)(C)C)c2)CCOCC1 (stereo not shown)  Recombinant human integrin αvβ1 (Homo sapiens, UniProt P05556+P06756)    8.15
 5  COc1c(Br)cc(C(C)(C)C)cc1C(CC(=O)O)Cc1cc(OCCc2ccc3c(n2)NCCC3)n(C)n1 (stereo not shown)  Recombinant human integrin αvβ1 (Homo sapiens, UniProt P05556+P06756)    7.89
 6  COc1ccc(C2=CCOCC2)cc1C(CC(=O)O)Cc1cc(OCCc2ccc3c(n2)NCCC3)n(C)n1 (stereo not shown)  Recombinant human integrin αvβ1 (Homo sapiens, UniProt P05556+P06756)    8.70
 7  Cc1cc(C)n(-c2cccc(C(CC(=O)O)Cc3csc(CCc4ccc5c(n4)NCCC5)n3)c2)n1 (stereo not shown)  Recombinant human integrin αvβ1 (Homo sapiens, UniProt P05556+P06756)    7.82
 8  CC(C)c1cc(C#N)cc(C(CC(=O)O)Cc2cc(OCCc3ccc4c(n3)NCCC4)n(C)n2)c1 (stereo not shown)  Recombinant human integrin αvβ1 (Homo sapiens, UniProt P05556+P06756)    8.05
 9  Cn1nc(CC(CC(=O)O)c2cc(C(C)(C)C)ccc2F)cc1OCCc1ccc2c(n1)NCCC2 (stereo not shown)  Recombinant human integrin αvβ1 (Homo sapiens, UniProt P05556+P06756)    8.15
10  COc1c(C(C)(C)C)cc(C(CC(=O)O)Cc2csc(CCCc3ccc4c(n3)NCCC4)n2)cc1C(C)(C)C (stereo not shown)  Recombinant human integrin αvβ1 (Homo sapiens, UniProt P05556+P06756)    8.15
11  COc1ccc(C(C)(C)C)cc1C(CC(=O)O)Cc1csc(CCCc2ccc3c(n2)NCCC3)n1 (stereo not shown)  Recombinant human integrin αvβ1 (Homo sapiens, UniProt P05556+P06756)    8.22
12  COc1c(C(C)C)cc(C(CC(=O)O)Cc2csc(CCCc3ccc4c(n3)NCCC4)n2)cc1C(C)C (stereo not shown)  Recombinant human integrin αvβ1 (Homo sapiens, UniProt P05556+P06756)    8.10
13  COCC1(c2ccc(OC)c([C@H](CC(=O)O)Cc3cc(OCCc4ccc5c(n4)NCCC5)n(C)n3)c2)CCOCC1  Recombinant human integrin αvβ1 (Homo sapiens, UniProt P05556+P06756)    8.62
14  COc1ccc(C2(C(F)F)CC2)cc1C(CC(=O)O)Cc1cc(OCCc2ccc3c(n2)NCCC3)n(C)n1 (stereo not shown)  Recombinant human integrin αvβ1 (Homo sapiens, UniProt P05556+P06756)    8.00
15  Cn1nc(C[C@@H](CC(=O)O)c2cc3c(c(C(C)(C)C)c2)OCO3)cc1OCCc1ccc2c(n1)NCCC2  Recombinant human integrin αvβ1 (Homo sapiens, UniProt P05556+P06756)    9.04
16  CC(C)(C)c1cc(C(CC(=O)O)Cc2csc(CCCc3ccc4c(n3)NCCC4)n2)cc(C2(C(F)F)CC2)c1 (stereo not shown)  Recombinant human integrin αvβ1 (Homo sapiens, UniProt P05556+P06756)    8.30
17  COc1ccc(C(F)(F)F)cc1C(CC(=O)O)Cc1csc(CCCc2ccc3c(n2)NCCC3)n1 (stereo not shown)  Recombinant human integrin αvβ1 (Homo sapiens, UniProt P05556+P06756)    8.30
18  Cn1nc(CC(CC(=O)O)c2cc(C(C)(C)C)cc(C(C)(C)C(F)(F)F)c2)cc1OCCc1ccc2c(n1)NCCC2 (stereo not shown)  Recombinant human integrin αvβ1 (Homo sapiens, UniProt P05556+P06756)    8.40
19  COc1c(C(C)(C)C)cc(C(CC(=O)O)Cc2cc(OCCc3ccc4c(n3)NCCC4)n(C)n2)cc1C(C)(C)C (stereo not shown)  Recombinant human integrin αvβ1 (Homo sapiens, UniProt P05556+P06756)    8.40
20  COc1ccc(C2CCOCC2)cc1C(CC(=O)O)Cc1csc(CCCc2ccc3c(n2)NCCC3)n1 (stereo not shown)  Recombinant human integrin αvβ1 (Homo sapiens, UniProt P05556+P06756)    8.52
21  Cn1nc(CC(CC(=O)O)c2cc(C(C)(C)C)ccc2OC(F)(F)F)cc1OCCc1ccc2c(n1)NCCC2 (stereo not shown)  Recombinant human integrin αvβ1 (Homo sapiens, UniProt P05556+P06756)    8.22
22  COc1cc(C(CC(=O)O)Cc2cc(OCCc3ccc4c(n3)NCCC4)n(C)n2)cc(C23CC4CC(CC(C4)C2)C3)c1OCc1ccccc1 (stereo not shown)  Recombinant human integrin αvβ1 (Homo sapiens, UniProt P05556+P06756)    7.68
23  COc1ccc(C2COC2)cc1C(CC(=O)O)Cc1cc(OCCc2ccc3c(n2)NCCC3)n(C)n1 (stereo not shown)  Recombinant human integrin αvβ1 (Homo sapiens, UniProt P05556+P06756)    8.10
24  Cn1nc(CC(CC(=O)O)c2cc(Cl)cc(C(C)(C)C#N)c2)cc1OCCc1ccc2c(n1)NCCC2 (stereo not shown)  Recombinant human integrin αvβ1 (Homo sapiens, UniProt P05556+P06756)    8.70
25  COc1ccc(C2(C(F)F)CC2)cc1C(CC(=O)O)Cc1csc(CCCc2ccc3c(n2)NCCC3)n1 (stereo not shown)  Recombinant human integrin αvβ1 (Homo sapiens, UniProt P05556+P06756)    8.70
26  COc1ccc(C2CCOCC2)cc1C(CC(=O)O)Cc1cc(OCCc2ccc3c(n2)NCCC3)n(C)n1 (stereo not shown)  Recombinant human integrin αvβ1 (Homo sapiens, UniProt P05556+P06756)    8.55
27  Cn1nc(CC(CC(=O)O)c2cc(Br)cc(S(F)(F)(F)(F)F)c2)cc1OCCc1ccc2c(n1)NCCC2 (stereo not shown)  Recombinant human integrin αvβ1 (Homo sapiens, UniProt P05556+P06756)    7.92
28  COc1ccc(C2=CCOCC2)cc1[C@H](CC(=O)O)Cc1csc(CCCc2ccc3c(n2)NCCC3)n1 [Example 37A, trifluoroacetate]  Recombinant human integrin αvβ1 (Homo sapiens, UniProt P05556+P06756)    9.05
